Recorded refractive index, one value per entry.
Experiment Summary: refractive index (Na D-line) (dimensionless)
Setup Conditions: 298.15 K; 101.33 kPa; Liquid; Standard Abbe refractometry
Format: numeric value only, no unit, no commentary.

• CC#N [acetonitrile] = 1.3416
• CCC(C)O (stereo not given) [butan-2-ol] = 1.3953

[Q] Quick one: refractive index for CC(C)CO [2-methyl-1-propanol] ?
[A] 1.3939

[Q] Quick one: refractive index for CCCCO [butan-1-ol] ?
[A] 1.3974

[Q] Quick one: refractive index for CC(C)(C)O [2-methylpropan-2-ol] ?
[A] 1.3852

* * *

Setup Conditions: 298.15 K; 101.33 kPa; Liquid; Vibrating tube method
Recorded mass density, one value per entry.
# value in kg/m3; strip the unit string

• CC(C)CO = 797.8

[Q] Quick one: mass density for CC#N ?
[A] 776.5

[Q] Quick one: mass density for CCCCO ?
[A] 805.8

[Q] Quick one: mass density for CCC(C)O (stereo not given) ?
[A] 802.4

[Q] Quick one: mass density for CC(C)(C)O ?
[A] 781.2
